Molecular target: UBE2E3
Assay: reporter assay of Huesken 2005
Details: siRNA
Oligonucleotides are written 5' to 3', each unit as a sugar letter and its base; * is a phosphorothioate linkage, no mark a phosphodiester; rarer units and linkages stand in square brackets, end groups in braces. Plain capitals give the bases only. d = 2'-deoxy (DNA); r = 2'-OH (RNA)
Would you mind labelling by normalised inhibition (eCFP-eYFP dual reporter)? At or over 60% is yes, under is no.

[in] Threshold query (normalised inhibition (eCFP-eYFP dual reporter) >= 60%) on sense rGrArUrArUrCrArCrArUrUrUrUrCrArUrCrArGdTdT / antisense rCrUrGrArUrGrArArArArUrGrUrGrArUrArUrCdCdA
[out] no

[in] Threshold query (normalised inhibition (eCFP-eYFP dual reporter) >= 60%) on sense rArCrUrGrCrArArCrCrCrUrGrCrGrGrArUrCrCdTdT / antisense rGrGrArUrCrCrGrCrArGrGrGrUrUrGrCrArGrUdCdT
[out] yes

[in] Threshold query (normalised inhibition (eCFP-eYFP dual reporter) >= 60%) on sense rArUrCrArArCrArGrUrCrArGrGrGrArGrUrCrAdTdT / antisense rUrGrArCrUrCrCrCrUrGrArCrUrGrUrUrGrArUdGdT
[out] yes

[in] Threshold query (normalised inhibition (eCFP-eYFP dual reporter) >= 60%) on sense rArUrUrCrArGrArArGrGrArGrCrUrArGrCrUrGdTdT / antisense rCrArGrCrUrArGrCrUrCrCrUrUrCrUrGrArArUdTdC
[out] no

[in] Threshold query (normalised inhibition (eCFP-eYFP dual reporter) >= 60%) on sense rArGrArUrCrArArCrUrArUrArCrUrUrGrGrUrCdTdT / antisense rGrArCrCrArArGrUrArUrArGrUrUrGrArUrCrUdCdC
[out] no

[in] Threshold query (normalised inhibition (eCFP-eYFP dual reporter) >= 60%) on sense rUrUrArUrCrCrArUrUrUrArArGrCrCrArCrCrAdTdT / antisense rUrGrGrUrGrGrCrUrUrArArArUrGrGrArUrArAdTdC
[out] no

[in] Threshold query (normalised inhibition (eCFP-eYFP dual reporter) >= 60%) on sense rGrGrArGrArUrArArCrArUrUrUrArUrGrArArUdTdT / antisense rArUrUrCrArUrArArArUrGrUrUrArUrCrUrCrCdTdT
[out] yes

[in] Threshold query (normalised inhibition (eCFP-eYFP dual reporter) >= 60%) on sense rArArCrUrCrUrCrUrArGrCrArArArArCrCrArCdTdT / antisense rGrUrGrGrUrUrUrUrGrCrUrArGrArGrArGrUrUdTdG
[out] no

###

// normalised inhibition (eCFP-eYFP dual reporter) lookup, one value per entry
Biological target: UBE2L6
Test: reporter assay of Huesken 2005
Settings: siRNA
Oligonucleotides are written 5' to 3', each unit as a sugar letter and its base; * is a phosphorothioate linkage, no mark a phosphodiester; rarer units and linkages stand in square brackets, end groups in braces. Plain capitals give the bases only. d = 2'-deoxy (DNA); r = 2'-OH (RNA)
Remember to quote the unit after the number.

Record excerpt, results attached:
- SUBSTANCE: "sense rUrCrArUrCrArGrCrArGrUrGrArGrArArCrUrGdTdT / antisense rCrArGrUrUrCrUrCrArCrUrGrCrUrGrArUrGrAdTdG"
  REPORTED_MEASUREMENT: "61.3%"
- SUBSTANCE: "sense rGrUrUrCrArCrCrCrUrCrCrGrArUrUrCrGrGrAdTdT / antisense rUrCrCrGrArArUrCrGrGrArGrGrGrUrGrArArCdTdC"
  REPORTED_MEASUREMENT: "61.1%"
- SUBSTANCE: "sense rUrGrArCrArCrArGrArArUrCrCrGrGrArGrCrUdTdT / antisense rArGrCrUrCrCrGrGrArUrUrCrUrGrUrGrUrCrAdGdC"
  REPORTED_MEASUREMENT: "54.8%"
- SUBSTANCE: "sense rUrCrArArGrCrCrUrCrCrCrArUrGrArUrCrArAdTdT / antisense rUrUrGrArUrCrArUrGrGrGrArGrGrCrUrUrGrAdAdC"
  REPORTED_MEASUREMENT: "86.7%"

[in] Record sense rCrCrArCrCrCrCrArArCrGrUrGrGrArCrGrArGdTdT / antisense rCrUrCrGrUrCrCrArCrGrUrUrGrGrGrGrUrGrGdTdA : what is its normalised inhibition (eCFP-eYFP dual reporter) with UBE2L6?
[out] 67.6%

[in] Record sense rArGrUrArUrCrCrGrUrUrCrArArGrCrCrUrCrCdTdT / antisense rGrGrArGrGrCrUrUrGrArArCrGrGrArUrArCrUdCdC : what is its normalised inhibition (eCFP-eYFP dual reporter) with UBE2L6?
[out] 53.7%

[in] Record sense rArCrCrCrGrArCrCrArArCrCrUrCrCrCrUrArCdTdT / antisense rGrUrArGrGrGrArGrGrUrUrGrGrUrCrGrGrGrUdAdG : what is its normalised inhibition (eCFP-eYFP dual reporter) with UBE2L6?
[out] 64%

[in] Record sense rUrGrCrCrGrArArGrArGrUrUrCrArCrCrCrUrCdTdT / antisense rGrArGrGrGrUrGrArArCrUrCrUrUrCrGrGrCrAdTdT : what is its normalised inhibition (eCFP-eYFP dual reporter) with UBE2L6?
[out] 59.9%
